Tested Target: T1, murine CD300C-Fc (mouse)
T1 construct: mouse IgG2a-Fc fusion (R&D Systems); the entry is the whole fusion chain; also called mCD300C; Mouse CD300C-Fc
T1 chain: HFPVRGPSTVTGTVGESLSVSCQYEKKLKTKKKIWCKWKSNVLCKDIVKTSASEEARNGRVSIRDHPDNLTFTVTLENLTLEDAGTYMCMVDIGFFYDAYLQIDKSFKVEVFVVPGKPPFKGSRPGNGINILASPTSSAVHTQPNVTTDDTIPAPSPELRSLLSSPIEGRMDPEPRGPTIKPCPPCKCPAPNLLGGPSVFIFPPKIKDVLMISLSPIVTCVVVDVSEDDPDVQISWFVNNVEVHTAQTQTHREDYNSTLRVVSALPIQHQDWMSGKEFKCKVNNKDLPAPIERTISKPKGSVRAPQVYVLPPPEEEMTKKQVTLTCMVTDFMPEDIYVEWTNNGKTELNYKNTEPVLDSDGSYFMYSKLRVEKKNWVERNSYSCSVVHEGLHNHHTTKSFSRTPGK
Assay Name: SPR (Carterra LSA), antibody immobilised, Fc fusion at 300 or 600 nM
Procedure: Binding of mouse anti-CD300LB IgG1 antibodies of the present disclosure to human and murine CD300 orthologs were evaluated by surface plasmon resonance (SPR) using a Carterra LSA instrument (Carterra, Salt Lake City, UT). […] Binding was assessed by injecting each analyte over the entire antibody array using the single channel flow cell. […] Data were processed and analyzed using NextGenKIT high-throughput kinetics analysis software (Carterra). […]
Measure Name: SPR binding (control subtracted)
Number only, please.

Requested field: SPR binding (control subtracted). Item: anti-CD300LB antibody CD-13 (antibody, V domains shown) VH: QIQLVQSGPELKKPGETVKISCKASGYTFTDYSMHWVKQAPGKGFKWMAWINTETGAPTHADDFRGRFAFSLETSASTAFLQISNLKTEDTATYFCVTFGKSYGMNYWGQGTSVTVSS VL: DIVLTQSPASLSVSLGQRATISCRASKSVGSSGSSYLHWYQQKPGQPPKLLIYLASNLESGVPARFSGSGSGTEFTLNIHPVEEEDAATYYCQHNAEVPPTFGGGTKLEIK
43.6
